Origin of the recorded values: patent US20250075056A1

# experimentSummary: Solubility of TBIs in common solvents
# Format: physicochemical
# measurementSetup: solvent DI Water; read-out: Solubility in DI Water
As shown below, each of these compounds has a reported solubility value.

# smilesRepr, recordedValue
rows = [
    ("Cc1cn(C(=O)c2ccc(C(=O)n3cnc(C)c3)cc2)cn1", "> 1000 µg/mL"),
    ("Cc1nccn1C(=O)c1ccc(C(=O)n2ccnc2C)cc1", "> 1000 µg/mL"),
    ("Cc1nc(C)n(C(=O)c2ccc(C(=O)n3c(C)nc(C)c3C)cc2)c1C", "> 1000 µg/mL"),
    ("CCc1nccn1C(=O)c1ccc(C(=O)n2ccnc2CC)cc1", "> 1000 µg/mL"),
    ("CCc1nc(C)cn1C(=O)c1ccc(C(=O)n2cc(C)nc2CC)cc1", "> 1000 µg/mL"),
    ("CC(C)c1nccn1C(=O)c1ccc(C(=O)n2ccnc2C(C)C)cc1", "< 1000 µg/mL"),
]

In plain terms, "O=C(c1ccc(C(=O)n2ccnc2)cc1)n1ccnc1" has a documented solubility of > 1000 µg/mL

In plain terms, "O=C(c1ccc(C(=O)n2ccnc2-c2ccccc2)cc1)n1ccnc1-c1ccccc1" has a documented solubility of < 1000 µg/mL

###

# experimentSummary: Solubility of TBIs in common solvents
# Type: physicochemical
# measurementSetup: organic solvent or mixture; solvent Ethanol; read-out: Solubility in Ethanol
quantity: solubility

Example results:
# smilesRepr, solubility
records = [
    ("Cc1nccn1C(=O)c1ccc(C(=O)n2ccnc2C)cc1", "> 1000 µg/mL"),
    ("CCc1nccn1C(=O)c1ccc(C(=O)n2ccnc2CC)cc1", "> 1000 µg/mL"),
    ("Cc1cn(C(=O)c2ccc(C(=O)n3cnc(C)c3)cc2)cn1", "> 1000 µg/mL"),
]

In plain terms, "O=C(c1ccc(C(=O)n2ccnc2)cc1)n1ccnc1" has a documented solubility of > 1000 µg/mL

In plain terms, "CC(C)c1nccn1C(=O)c1ccc(C(=O)n2ccnc2C(C)C)cc1" has a documented solubility of < 1000 µg/mL

In plain terms, "Cc1nc(C)n(C(=O)c2ccc(C(=O)n3c(C)nc(C)c3C)cc2)c1C" has a documented solubility of > 1000 µg/mL

In plain terms, "O=C(c1ccc(C(=O)n2ccnc2-c2ccccc2)cc1)n1ccnc1-c1ccccc1" has a documented solubility of < 1000 µg/mL

In plain terms, "CCc1nc(C)cn1C(=O)c1ccc(C(=O)n2cc(C)nc2CC)cc1" has a documented solubility of < 1000 µg/mL
